Tested on: MARK3
Recorded Conditions: concentration: 1 μM, replicates: in singlicate; n = 1;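 further: KINOMEscan kinase panel screen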
Measurement Name: %Inh (%)
Return type: number; implicit unit %.

The cases that follow already have their %Inh on record.
>>> df
                                   compound  measurement_name  reported
0  O=C(Nc1n[nH]c2cc(-c3ccccc3F)ccc12)C1CC1 [SB-733371]              %Inh         0
1  CCS(=O)c1ccc(-c2coc3ccc(-c4nnc(C)o4)cc23)cc1 (centres unmarked)              %Inh        17
2  CCCC(=O)Nc1n[nH]c2ncc(-c3cccc4ccccc34)cc12 [SB-642057]              %Inh         0
3  Cc1nn2c(=O)cc(N3CCOCC3)nc2n1Cc1cccc(Cl)c1Cl [GSK2342769]              %Inh         0
4  Cc1cccc(-c2nc(Nc3ccc4c(cnn4C)c3)c3ccccc3n2)n1 [GW876731]              %Inh        34

# evaluate next
Data request: Looking for the measured %Inh of `COC(=O)c1c(-c2ccccc2)c2cc(Br)ccc2c(=O)n1Cc1ccc(NC(=O)CCC(=O)O)cc1` , can you help?
Data returned: 0

---

Test system: RSK4(Kin.Dom.1-N-terminal)
Construct: gene RPS6KA6
Recorded Conditions: concentration: 1 μM, replicates: in singlicate; n = 1
Measurement Name: %Inh (%)
Could you give me the number in %? Just the number is fine.

>>> df
                         compound_structure  reported
0  Cl.NS(=O)(=O)c1cccc(Nc2cc(-c3ccc(F)cc3)n[nH]2)c1        15

Attention now turns to another entry.
Data request: %Inh for `CCC(=O)c1c(-c2ccccc2)c2cc(Cl)ccc2c(=O)n1Cc1cc(S(C)(=O)=O)n(CC(N)=O)n1` ?
Data returned: 0

---

Here, each record is paired with measured %Inh data.
Tested on: AKT3
Recorded Conditions: concentration: 1 μM, replicates: in singlicate; n = 1
Response body: numeric value in %, unit text excluded.

Would you please look over these solved cases?
In [3]: df
Out[3]:
                                   molecule  measurement_name  reported
0  COC(=O)c1c(-c2ccccc2)c2cc(C)ccc2c(=O)n1Cc1ccccc1              %Inh         0
1  Cc1ccc(-c2ccc3c(ccc4sc5c(c43)NC[C@@H](C)N=C5N(C)C)n2)cn1              %Inh         0
2  OCCCNc1nccc(-c2c(-c3cccc(C(F)(F)F)c3)nn3cc(C(F)(F)F)ccc23)n1              %Inh         0
3  Cc1cccc(-c2cc(-c3c[nH]nc3-c3ccccn3)ccn2)c1              %Inh         0
4           Nc1nc(N)c2nc(-c3ccccc3)[nH]c2n1              %Inh        15
5  COC(=O)c1c(-c2ccccc2)c2cc(Br)ccc2c(=O)n1Cc1ccc(S(C)(=O)=O)cc1              %Inh         0
6  CCCC(=O)Nc1n[nH]c2ncc(-c3cccc4ccccc34)cc12              %Inh         0
7  COc1cc(OC)cc(-c2cc3cnc(N)nc3nc2NC(=O)NC(C)(C)C)c1              %Inh        24
8  COc1cc(Nc2ccnc3ccc(C(F)(F)F)cc23)cc(OC)c1OC              %Inh         0
9    Fc1cccc(CSc2nnc(-c3ccc4c(c3)CCO4)o2)c1              %Inh         0

Data request: Given `COc1ccc(-c2cc3c(C)nc(N)nc3n([C@H]3CC[C@H](O)CC3)c2=O)cn1` , state its recorded %Inh.
Data returned: 0

Data request: Entry CCS(=O)c1ccc(-c2coc3ccc(-c4nnc(C)o4)cc23)cc1 (centres unmarked) : reported %Inh = ?
Data returned: 0

---

Test system: MLK3
Recorded Conditions: concentration: 1 μM, replicates: in singlicate; n = 1
Measurement Name: %Inh (%)
Respond with the bare value in %.

A selection of reference data follows.
>>> print(df.to_string())
                                   molecule  reported
0  Cl.c1ccc(Cn2cnc3cc(Nc4ncnc5ccccc45)ccc32)cc1        11
1  Nc1nccc2scc(-c3ccc4c(c3)CCN4C(=O)Cc3ccccc3)c12         5
2  Cc1nnc(-c2ccc3ncn(-c4ccc(S(C)=O)cc4)c3c2)o1 (centres unmarked)         0
3  Cc1ccc(Oc2ccc(Nc3ncnc4cc[nH]c34)cc2C)cn1         1
4  O=c1cc(N2CCOCC2)nc2n(Cc3ccc(F)c(Cl)c3)ccn12         0
5  O=C(NCCNc1ccnc(Nc2ccc(F)cc2)n1)Nc1ccc2c(c1)OCO2         0

Data request: Field request: %Inh | item: `FC(F)(F)c1ccc(-c2ncn(CCCN3CCOCC3)c2-c2ccncc2)cc1`
Data returned: 5

Data request: Requested read-out: %Inh. Entry: `COc1cc2ncn(-c3cc(OCc4ccncc4)c(C(N)=O)s3)c2cc1OC`
Data returned: 19

Data request: Looking for the measured %Inh of `CCc1nc(-c2cccc(C)c2)c(-c2ccncc2)s1` , can you help?
Data returned: 17

Data request: # %Inh lookup, item `COc1cccc(C2=C(Nc3cccc(C(=O)O)c3)C(=O)NC2=O)c1`
Data returned: 45

Data request: What value of %Inh has been recorded for this entry: COc1ccc(Nc2nccc(N3CCC(NS(=O)(=O)c4ccc(NC(C)=O)cc4)C3)n2)cc1 (centres unmarked)
Data returned: 18

---

System: TSSK3
Recorded Conditions: concentration: 1 μM, replicates: in singlicate; n = 1
Let's look at some molecules and their measured %Inh.
Record the value in %, omitting the unit from your answer.

Examples from the recorded data:
>>> print(df.to_string())
                                   molecule  reported
0  Nc1n[nH]c2ncc(-c3ccccc3)cc12 [SB-517081]         4
1  Cn1c(=O)c(F)c(Nc2ccc(I)cc2F)c2c(=O)n(OC[C@H](O)CO)cnc21         0
2  Nc1nc(-c2ccccc2F)c(-c2ccnc3ccccc23)s1 [GW560459]        10

Data request: For the molecule `CCC(=O)c1c(-c2ccccc2)c2cc(Cl)ccc2c(=O)n1Cc1cc(S(C)(=O)=O)n(CCC(C)(C)O)n1` , what %Inh is on record?
Data returned: 1

Data request: What value of %Inh has been reported for the following molecule? Cl.NS(=O)(=O)c1cccc(Nc2cc(-c3ccc(F)cc3)n[nH]2)c1 [GW824645]
Data returned: 0

Data request: Which %Inh value is on record for COc1cccc(C2=C(Nc3cccc(C(=O)O)c3)C(=O)NC2=O)c1 [SB-390770] ?
Data returned: 15

---

System: ALK
Recorded Conditions: concentration: 1 μM, replicates: in singlicate; n = 1
The entries below come with measured %Inh values attached.
Response body: numeric value in %, unit text excluded.

Recorded %Inh, per entry:
In [3]: df
Out[3]:
                                   compound  reported
0  COC(=O)c1c(-c2ccccc2)c2cc(C)ccc2c(=O)n1Cc1ccccc1         0
1  COc1cc2nccc(Nc3cccc(Oc4ccccc4)c3)c2cc1OC.Cl [GW284543]         1
2  Cc1ccc(-c2ccc3c(ccc4sc5c(c43)NC[C@@H](C)N=C5N(C)C)n2)cn1         4

Attention now turns to another entry.
Data request: Give the measured %Inh of `CCC(=O)c1c(-c2ccccc2)c2cc(Cl)ccc2c(=O)n1Cc1cc(S(C)(=O)=O)n(CC(N)=O)n1` .
Data returned: 0

---

Tested on: RPS6KA5(Kin.Dom.1-N-terminal)
Recorded Conditions: concentration: 1 μM, replicates: in singlicate; n = 1
The following compounds are listed with their measured %Inh values.

In [3]: df
Out[3]:
                                   compound  reported
0  Cc1cccc(-c2nc(Nc3ccc4c(cnn4C)c3)c3ccccc3n2)n1        0%

Data request: Requested field: %Inh. Item: COc1cc(Nc2nccc(N3CCC(NC(=O)C4COc5ccccc5O4)C3)n2)cc(OC)c1OC (centres unmarked)
Data returned: 0%

Data request: Request the reported %Inh associated with `COc1ccc(-c2coc3ccc(-c4nnc(SCc5cccc(C#N)c5)o4)cc23)cc1`
Data returned: 29%

Data request: // returns reported %Inh for input `CCc1ccc(-c2ccc3c(c2)-c2nn(C)cc2S(=O)(=O)N3C)cc1`
Data returned: 0%

Data request: Which %Inh value is on record for `O=C(Nc1n[nH]c2nc(-c3ccccc3)c(Br)cc12)C1CC1` ?
Data returned: 28%

Attribution: paper PMC5540273
